Assay: gradient 5% acetonitrile 3 min, to 50% in 2 min, to 85% in 15 min, held 3 min, 100 µL/min
Conditions: column: Zorbax Extend-C18 2.1 x 50 mm; eluents: water / acetonitrile, 0.1% formic acid
I'd appreciate it if you could supply RP-LC retention time values for the items below.
Quick reminder: number only, in s, skip the unit.

Entry CCc1nc(OCC(=O)Nc2ccc(OC)cc2OC)c2ccccc2n1 has what RP-LC retention time?
788

Continue with CCc1cccc(C)c1NC(=O)Cn1nc(N2CCOCC2)c2ccccc2c1=O
809

Now give it for Cc1csc(-c2cc(S(=O)(=O)Nc3ccc(S(N)(=O)=O)cc3)c(C)s2)n1 too.
797

---

Experiment: gradient 5% acetonitrile 3 min, to 50% in 2 min, to 85% in 15 min, held 3 min, 100 µL/min
Conditions: column: Zorbax Extend-C18 2.1 x 50 mm; eluents: water / acetonitrile, 0.1% formic acid
RP-LC retention time strictly under 600 s means yes (1); at 600 s or over means no (0).

Quick check: does Cc1nnc2cc(N3CCN(C(=O)Nc4ccccc4Cl)CC3)cnn12 have RP-LC retention time under 600 s?
yes (1)

Also, Cc1ccc(-c2noc(Cn3ccn4nc(-c5ccc6c(c5)OCO6)cc4c3=O)n2)cc1 please.
no (0)

Follow-up item: CC1CCN(c2ncc(C(=O)O)c(-c3ccncc3)n2)CC1
no (0)

Can you handle COc1ccc(OC)c(S(=O)(=O)N2C[C@@H](F)C[C@H]2C(=O)N2CCCCC2)c1 next?
no (0)

---

Test: gradient 5% acetonitrile 3 min, to 50% in 2 min, to 85% in 15 min, held 3 min, 100 µL/min
Conditions: column: Zorbax Extend-C18 2.1 x 50 mm; eluents: water / acetonitrile, 0.1% formic acid
So I've got a bunch of molecules here, and I need their RP-LC retention time values.
Please state the figure in s; there is no need to write the unit.

RP-LC retention time lookup needed for O=C(CN1C(=O)CC(c2cccs2)=Nc2ccccc21)NC1CCCCC1 , thanks.
884

Also, COc1ccc(C2C(C(=O)NCCN(C)C)c3ccccc3C(=O)N2C)cc1OC (stereo not drawn) please.
700

Now consider CCOC(=O)Cc1csc(NC(=O)CCS(=O)(=O)c2ccccc2)n1 .
844

---

Test: gradient 5% acetonitrile 3 min, to 50% in 2 min, to 85% in 15 min, held 3 min, 100 µL/min
Conditions: column: Zorbax Extend-C18 2.1 x 50 mm; eluents: water / acetonitrile, 0.1% formic acid
For each record, write down the corresponding RP-LC retention time.
Field: numeric (s). Do not append units.

Item CCNC(=O)C1CCCN(c2nc3ncn(CC(=O)Nc4cc(C)cc(C)c4)c(=O)c3s2)C1 (centres undefined) has what recorded RP-LC retention time?
716

Please do the same for Cc1nc(C(=O)Nc2ccccc2)c(C)o1 as well.
809

Now the compound Cc1cc(C)cc(N2C(=O)N(CC(=O)N3CCC(C)CC3)C3CS(=O)(=O)CC32)c1 (centres undefined)
816

Another compound to look at: Cc1ccc(NS(=O)(=O)c2cc(-c3[nH]ncc3C(=O)N(C)C)oc2C)cc1F
713

Would you kindly repeat that for Cc1ccc(NS(=O)(=O)c2cc3n(c2)CCN(C(C)C)C3=O)c(C)c1 ?
800

Now try CCOc1ccc(Nc2c(C(=O)N3CCCCC3CC)cnc3nc(C)ccc23)cc1 (centres undefined) .
683

Also, O=C(Cn1nc2c3ccc(F)cc3ncn2c1=O)Nc1ccc2c(c1)OCO2 please.
707

And for COCC(=O)N1CCC2(CC1)Nc1ccc(C)c(C)c1-n1cccc12 ?
823

Repeat for the following compound: CCC(C)NC(=O)CC1CCN(C(=O)c2ccc3oc(C4CC4)nc3c2)CC1 (centres undefined)
710
